Entry source: the RNAGym collection of RNA variant scans (doi:10.1073/pnas.2313332121)

B1: TPR t1 (parent)
chain: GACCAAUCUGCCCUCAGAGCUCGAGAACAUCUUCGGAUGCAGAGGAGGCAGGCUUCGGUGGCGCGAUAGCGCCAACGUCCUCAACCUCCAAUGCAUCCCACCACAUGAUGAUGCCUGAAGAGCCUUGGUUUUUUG

variants of: B1; experiment: polymerase ribozyme fitness, log enrichment relative to wild type (log ratio); higher = more active; in vitro selection for triplet polymerase activity
measurement.name: polymerase ribozyme fitness (log ratio)

change	measurement.name	test.value
C70U A121C	polymerase ribozyme fitness (log ratio)	1.13
A43C G117U	polymerase ribozyme fitness (log ratio)	-5
G17A G39U G113C	polymerase ribozyme fitness (log ratio)	-6.88
A6C G48A G71U C82A	polymerase ribozyme fitness (log ratio)	-1
U38G U54G	polymerase ribozyme fitness (log ratio)	-0.407
C8A C11G C13U C20A G36A U78C	polymerase ribozyme fitness (log ratio)	-3.05
G63U G110U	polymerase ribozyme fitness (log ratio)	-3.12
A6U G48C	polymerase ribozyme fitness (log ratio)	-0.598
G71U C124U	polymerase ribozyme fitness (log ratio)	1.13
G63U G93U	polymerase ribozyme fitness (log ratio)	-1.76
C80G G127U	polymerase ribozyme fitness (log ratio)	-6.14
A26U C62G C124A	polymerase ribozyme fitness (log ratio)	-3.42
